B1: mRNA-splicing (parent)
chain: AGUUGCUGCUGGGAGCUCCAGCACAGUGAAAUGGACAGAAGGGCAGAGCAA

Variants of: B1
EXPERIMENTAL_DETAILS: exon inclusion enrichment index; higher = more inclusion; WT1 exon 5 minigene, HEK293
Attribute: exon inclusion enrichment index
Give the figure by itself; no unit, no explanation.

U3G U4C G5C C6G U7C U10C    2.03
G5C C6A U7C G8A U10A A14U G15A    0.00771
G5A C6G U7C U10C    0.952
G5A C6G U7G C9A G15A    0.00165
C6A U7C C9A U10C A25G G26A    5.01
G5A C6A U7A C9A    0.386

Next, consider the following variant.
Task: Data request, read-out exon inclusion enrichment index, for G5U G8U C9U A30U A31C
Output: 0.0725
